- assayed_system: T1, monkey CD22 protein (ACROBiosystems, catalog number SI2-R52Ha) (monkey, UniProt F6W485 20-688)
- T1 construct: commercial protein; also called monkey CD22-ECD; monkey CD22-ECD-His
- T1 sequence: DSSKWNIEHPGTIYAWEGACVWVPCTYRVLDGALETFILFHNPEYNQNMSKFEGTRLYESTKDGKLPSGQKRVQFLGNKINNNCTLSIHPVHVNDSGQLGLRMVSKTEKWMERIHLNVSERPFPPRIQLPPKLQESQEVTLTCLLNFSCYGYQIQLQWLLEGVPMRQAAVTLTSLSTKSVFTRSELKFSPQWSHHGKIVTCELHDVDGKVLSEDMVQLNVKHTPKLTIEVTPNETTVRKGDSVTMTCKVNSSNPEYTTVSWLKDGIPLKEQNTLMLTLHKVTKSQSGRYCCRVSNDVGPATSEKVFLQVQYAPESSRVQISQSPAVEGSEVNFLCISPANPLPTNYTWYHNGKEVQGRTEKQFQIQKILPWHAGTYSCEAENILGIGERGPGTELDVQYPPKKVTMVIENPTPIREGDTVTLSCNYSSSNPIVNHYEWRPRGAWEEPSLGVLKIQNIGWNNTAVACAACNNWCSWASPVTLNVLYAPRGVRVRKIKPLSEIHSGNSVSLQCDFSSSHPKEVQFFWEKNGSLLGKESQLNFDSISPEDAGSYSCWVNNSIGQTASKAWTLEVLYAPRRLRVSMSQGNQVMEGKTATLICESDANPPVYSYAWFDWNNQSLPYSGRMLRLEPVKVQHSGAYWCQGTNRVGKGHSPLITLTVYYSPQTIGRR
- test: ELISA, coated monkey CD22 protein, antibody 0.01 nM
- Protocol: In order to detect the binding activity of CD22 human-murine chimeric antibodies to CD22 protein, the purified human CD22-ECD-His protein obtained in Example 2 was diluted with PBS to a final concentration of 2 μg/mL, and then added to 96-well ELISA plate at 100 μl/well. The plate was sealed with plastic film and incubated overnight at 4° C., the plate was washed 2 times with PBS the next day, and then a blocking solution [PBS+2% (w/w) BSA] was added for blocking at room temperature for 2 hours. […]
measured_metric: OD450

Use the examples below as a reference point.
binder="F2.173.9 (antibody, human IgG1, lambda, V domains shown, human-murine chimeric IgG1 lambda) VH: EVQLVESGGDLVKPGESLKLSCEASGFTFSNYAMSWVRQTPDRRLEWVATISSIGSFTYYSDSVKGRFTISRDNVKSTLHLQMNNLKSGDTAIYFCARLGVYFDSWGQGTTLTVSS VL: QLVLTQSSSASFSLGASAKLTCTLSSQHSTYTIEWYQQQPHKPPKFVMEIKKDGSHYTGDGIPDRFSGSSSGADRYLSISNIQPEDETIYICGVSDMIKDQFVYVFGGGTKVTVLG" measured_metric=OD450 experimental_result="0.38 OD450"
binder="m971-hIgG1 (antibody, V domains shown, control anti-CD22 antibody; variable regions from US 8,591,889 on human IgG1 constant regions) VH: QVQLQQSGPGLVKPSQTLSLTCAISGDSVSSNSAAWNWIRQSPSRGLEWLGRTYYRSKWYNDYAVSVKSRITINPDTSKNQFSLQLNSVTPEDTAVYYCAREVTGDLEDAFDIWGQGTMVTVSS VL: DIQMTQSPSSLSASVGDRVTITCRASQTIWSYLNWYQQRPGKAPNLLIYAASSLQSGVPSRFSGRGSGTDFTLTISSLQAEDFATYYCQQSYSIPQTFGQGTKLEIKR" measured_metric=OD450 experimental_result="0.07 OD450"

Proceeding to the next binder to report its OD450.
IN: Dear colleague, I am looking for the recorded OD450 of the following binder: F1.60.9 (antibody, human IgG1, kappa, V domains shown, human-murine chimeric IgG1 kappa) VH: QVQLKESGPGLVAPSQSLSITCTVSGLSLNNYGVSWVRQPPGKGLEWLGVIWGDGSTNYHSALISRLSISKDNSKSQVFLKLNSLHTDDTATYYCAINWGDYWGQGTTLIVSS VL: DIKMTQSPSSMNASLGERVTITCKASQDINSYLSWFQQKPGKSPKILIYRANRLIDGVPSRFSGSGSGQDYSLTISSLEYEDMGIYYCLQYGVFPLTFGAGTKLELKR
OUT: 0.05 OD450

Provenance of the data: patent US20240084003A1
